- System: KRAS PDC multicell spheroid viability;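 also: drug exposure lasted seven days; 100% = DMSO vehicle wells and lower means fewer viable cells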
- Test name: Anticancer human tumor 521955-158-R6-J3-PDC patient-derived pancreatic carcinoma cell line growth inhibition [KRAS2]
- Measurement conditions: second compound 3.16 µM; first compound 0.316 µM; hits give low values
- Excerpt: Multicellular complex tumor spheroid response to RAS pathway inhibitors in combination with a targeted agents in patient-derived cell lines with oncogenic KRAS variants from multiple cancer types A high-throughput screen of multi-cell type tumor spheroids was designed to identify active combinations of targeted small molecules and KRAS pathway inhibitors. […] Compounds. […] If the clinical Cmax for an agent had not been determined, the highest concentration tested was 10 microM. […]
Reported metric: viability, T/C (%)
Provide only the numeric value, understood in %.

These solved cases illustrate the format of a correct answer.
1) COc1cc(Nc2ncc3c(n2)-c2ccc(Cl)cc2C(c2c(F)cccc2OC)=NC3)ccc1C(=O)O + CC1OCC2(CCN(c3cnc(Sc4ccnc(N)c4Cl)c(N)n3)CC2)C1N :: 97.9
2) CCNC(=O)CC1N=C(c2ccc(Cl)cc2)c2cc(OC)ccc2-n2c(C)nnc21 (stereo not given) + C=CC(=O)N1CCN(c2nc(=O)n(-c3c(C)ccnc3C(C)C)c3nc(-c4c(O)cccc4F)c(F)cc23)C(C)C1 :: 65.6
3) CC(C)NCC(C(=O)N1CCN(c2ncnc3c2C(C)CC3O)CC1)c1ccc(Cl)cc1 (stereo not given) + C=CC(=O)N1CCN(c2nc(OCC3CCCN3C)nc3c2CCN(c2cccc4cccc(C)c24)C3)CC1CC#N :: 35.2
4) COc1cc2nccc(Oc3ccc(NC(=O)C4(C(=O)Nc5ccc(F)cc5)CC4)cc3)c2cc1OC + C=CC(=O)N1CCN(c2nc(OCC3CCCN3C)nc3c2CCN(c2cccc4cccc(C)c24)C3)CC1CC#N :: 33.7
5) COC(=O)c1ccc2c(C(=Nc3ccc(N(C)C(=O)CN4CCN(C)CC4)cc3)c3ccccc3)c(O)[nH]c2c1 + C=CC(=O)N1CCN(c2nc(=O)n(-c3c(C)ccnc3C(C)C)c3nc(-c4c(O)cccc4F)c(F)cc23)C(C)C1 :: 94.2
6) CCNC(=O)CC1N=C(c2ccc(Cl)cc2)c2cc(OC)ccc2-n2c(C)nnc21 (stereo not given) + COc1cc2nc(C)nc(NC(C)c3cc(N)cc(C(F)(F)F)c3)c2cc1OC1CCOC1 :: 66.5

Query: Input O=C(c1cc(Cc2n[nH]c(=O)c3ccccc23)ccc1F)N1CCN(C(=O)C2CC2)CC1 + CC1OCC2(CCN(c3cnc(Sc4ccnc(N)c4Cl)c(N)n3)CC2)C1N , output reported viability, T/C.
Reply: 88

Query: Input CC(=O)OC12COC1CC(O)C1(C)C(=O)C(O)C3=C(C)C(OC(=O)C(O)C(NC(=O)OC(C)(C)C)c4ccccc4)CC(O)(C(OC(=O)c4ccccc4)C21)C3(C)C (stereo not given) + CNCc1ccccc1-c1csc(C(C)Nc2nc(C)nc3cc(OC)c(OC)cc23)c1 , output reported viability, T/C.
Reply: 1.02

Query: Input COC(=O)c1ccc2c(C(=Nc3ccc(N(C)C(=O)CN4CCN(C)CC4)cc3)c3ccccc3)c(O)[nH]c2c1 + COc1cc2nc(C)nc(NC(C)c3cc(N)cc(C(F)(F)F)c3)c2cc1OC1CCOC1 , output reported viability, T/C.
Reply: 108

Query: Input CC1OCC2(CCN(c3cnc(Sc4ccnc(N)c4Cl)c(N)n3)CC2)C1N (stereo not given) + CNCc1ccccc1-c1csc(C(C)Nc2nc(C)nc3cc(OC)c(OC)cc23)c1 , output reported viability, T/C.
Reply: 0.25
